Below: a set of entries, each annotated with reported IC50.
biological target: PI3K delta (PI3 Kd) (Homo sapiens); construct: endogenous in cells; host or cells: Jurkat, clone E6-1 (ATCC TIB-152) cell lysate; assay: kinobeads assay, PI3K delta; format: binding; settings: kinobeads assay, Table 4; read-out: Inhibition values (IC50) PI3Kd
Sequence (O00329 whole entry): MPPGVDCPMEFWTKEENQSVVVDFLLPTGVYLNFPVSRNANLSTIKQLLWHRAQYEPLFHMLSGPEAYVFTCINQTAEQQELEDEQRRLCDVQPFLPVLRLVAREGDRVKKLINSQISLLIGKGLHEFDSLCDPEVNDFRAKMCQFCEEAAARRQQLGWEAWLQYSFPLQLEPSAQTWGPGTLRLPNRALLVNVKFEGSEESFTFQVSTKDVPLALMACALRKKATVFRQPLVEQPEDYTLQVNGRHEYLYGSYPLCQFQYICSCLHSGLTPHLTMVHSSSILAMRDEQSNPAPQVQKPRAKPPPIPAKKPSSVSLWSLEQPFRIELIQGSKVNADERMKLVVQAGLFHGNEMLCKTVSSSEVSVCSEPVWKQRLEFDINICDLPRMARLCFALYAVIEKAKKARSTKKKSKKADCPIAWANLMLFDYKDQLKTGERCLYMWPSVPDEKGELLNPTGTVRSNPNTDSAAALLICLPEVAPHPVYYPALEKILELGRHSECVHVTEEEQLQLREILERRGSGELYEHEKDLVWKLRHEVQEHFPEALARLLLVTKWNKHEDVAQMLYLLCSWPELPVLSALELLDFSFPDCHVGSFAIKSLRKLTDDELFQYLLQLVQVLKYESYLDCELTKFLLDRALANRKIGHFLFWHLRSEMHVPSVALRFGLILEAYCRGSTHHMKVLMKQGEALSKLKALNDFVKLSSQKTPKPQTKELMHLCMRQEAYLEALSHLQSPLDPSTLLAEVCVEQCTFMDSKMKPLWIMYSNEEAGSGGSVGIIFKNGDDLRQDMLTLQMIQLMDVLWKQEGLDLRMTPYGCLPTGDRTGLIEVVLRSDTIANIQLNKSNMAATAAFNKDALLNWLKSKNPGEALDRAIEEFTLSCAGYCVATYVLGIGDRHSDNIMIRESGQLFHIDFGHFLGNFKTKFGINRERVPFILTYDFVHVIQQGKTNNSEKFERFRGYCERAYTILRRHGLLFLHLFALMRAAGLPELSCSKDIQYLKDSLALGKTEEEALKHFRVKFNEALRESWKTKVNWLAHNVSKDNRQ
Sequence (P27986 whole entry partner): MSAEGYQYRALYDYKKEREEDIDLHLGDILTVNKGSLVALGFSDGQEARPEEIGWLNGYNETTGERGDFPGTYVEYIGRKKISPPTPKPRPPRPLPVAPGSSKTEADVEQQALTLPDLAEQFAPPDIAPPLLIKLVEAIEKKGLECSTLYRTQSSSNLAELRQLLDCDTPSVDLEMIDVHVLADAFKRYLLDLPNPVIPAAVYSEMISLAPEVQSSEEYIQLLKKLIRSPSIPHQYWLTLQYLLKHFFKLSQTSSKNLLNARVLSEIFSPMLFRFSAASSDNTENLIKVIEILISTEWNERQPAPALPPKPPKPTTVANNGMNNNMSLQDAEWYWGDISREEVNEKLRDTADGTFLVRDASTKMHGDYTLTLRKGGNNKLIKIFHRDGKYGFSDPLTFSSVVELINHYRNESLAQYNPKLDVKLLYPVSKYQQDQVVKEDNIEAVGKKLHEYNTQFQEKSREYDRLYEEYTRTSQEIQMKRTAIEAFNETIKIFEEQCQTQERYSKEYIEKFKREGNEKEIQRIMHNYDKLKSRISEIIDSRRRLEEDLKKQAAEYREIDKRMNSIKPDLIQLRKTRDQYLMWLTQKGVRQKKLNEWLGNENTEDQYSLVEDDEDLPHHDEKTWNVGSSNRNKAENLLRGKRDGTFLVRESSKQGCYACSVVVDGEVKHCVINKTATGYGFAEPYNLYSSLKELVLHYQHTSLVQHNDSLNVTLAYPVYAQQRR

# count of solved cases: 5
INSERT INTO assay_data (smiles, quantity_kind, experimental_result) VALUES
  ('CCNC(=O)Nc1ccc(-c2nc3c(c(N4CCOC[C@@H]4C)n2)CN(C(=O)OC(C)(C)C)C3)cc1', 'IC50', '> 10 µM'),
  ('CC(C)CN1CCc2c(nc(-c3ccc(NC(=O)NC4CC4)cc3)nc2N2CCOC[C@@H]2C)C1', 'IC50', '> 10 µM'),
  ('CCNC(=O)Nc1ccc(-c2nc3c(c(N4CCOC[C@@H]4C)n2)CNCC3)cc1', 'IC50', '> 10 µM'),
  ('CCNC(=O)Nc1ccc(-c2nc3c(c(N4CCOC[C@@H]4C)n2)CN(S(C)(=O)=O)C3)cc1', 'IC50', '> 10 µM'),
  ('CCNC(=O)Nc1ccc(-c2nc3c(c(N4CCOC[C@@H]4C)n2)CCN(C(=O)C2CC2)C3)cc1', 'IC50', '> 10 µM');

Ask: Report IC50, nothing else, for this compound: C[C@@H]1COCCN1c1nc(-c2ccc(NC(=O)NC3CC3)cc2)nc2c1CNC2
Reply: > 10 µM

Ask: Please list IC50 recorded for the compound CNC(=O)Nc1ccc(-c2nc3c(c(N4CCOC[C@@H]4C)n2)CNCC3)cc1
Reply: > 10 µM

====

target: mTOR (Homo sapiens); construct: endogenous in cells; host or cells: Jurkat, clone E6-1 (ATCC TIB-152) cell lysate; test: mTOR kinobeads assay (competitive binding in Jurkat cell lysate, immunodetection); conditions: kinobeads assay, Table 4; read-out: Inhibition values (IC50) mTor
Quantity Kind: IC50

Take a look at these entries with their results.
INSERT INTO assay_data (molecule, assayed_target, quantity_kind, experimental_result) VALUES
  ('C[C@H]1COCCN1c1nc(-c2ccc(NC(N)=O)cc2)nc2c1CN(CC1CC1)C2 [Example 48]', 'mTOR (Homo sapiens)', 'IC50', '100 to 1000 nM'),
  ('CCNC(=O)Nc1ccc(-c2nc3c(c(N4CCOC[C@@H]4C)n2)CN(C(=O)c2ccc(F)cc2)C3)cc1 [Example 19]', 'mTOR (Homo sapiens)', 'IC50', '100 to 1000 nM'),
  ('C[C@H]1COCCN1c1nc(-c2ccc(NC(=O)NC3CC3)cc2)nc2c1CN(CC(C)(C)C)C2 [Example 25]', 'mTOR (Homo sapiens)', 'IC50', '100 to 1000 nM'),
  ('CC(C)C(=O)N1CCc2c(nc(-c3ccc(NC(=O)NC4CC4)cc3)nc2N2CCOC[C@@H]2C)C1 [Example 61]', 'mTOR (Homo sapiens)', 'IC50', '< 100 nM'),
  ('CNC(=O)Nc1ccc(-c2nc3c(c(N4CCOC[C@@H]4C)n2)CN(CC2CC2)C3)cc1 [Example 47]', 'mTOR (Homo sapiens)', 'IC50', '< 100 nM');

Ask: Item CCNC(=O)Nc1ccc(-c2nc3c(c(N4CCOC[C@@H]4C)n2)CCN(C)C3)cc1 [Example 35] : provide IC50
Reply: < 100 nM

Ask: Quick one: give measured IC50 for CCNC(=O)Nc1ccc(-c2nc3c(c(N4CCOC[C@@H]4C)n2)CN(CC2CC2)C3)cc1 [Example 28]
Reply: < 100 nM

Ask: Indicate its recorded IC50; the molecule in question is C[C@H]1COCCN1c1nc(-c2ccc(NC(N)=O)cc2)nc2c1CN(C=O)C2 [Example 6]
Reply: 100 to 1000 nM

Ask: Give the reported IC50 for this molecule. CC(C)C(=O)N1Cc2nc(-c3ccc(NC(=O)NC4CC4)cc3)nc(N3CCOC[C@@H]3C)c2C1 [Example 44]
Reply: < 100 nM

Ask: Determine its reported IC50: CCNC(=O)Nc1ccc(-c2nc3c(c(N4CCOC[C@@H]4C)n2)CN(S(C)(=O)=O)C3)cc1 [Example 32]
Reply: < 100 nM

Ask: Hello, please tell me recorded IC50 for this one: CCNC(=O)Nc1ccc(-c2nc3c(c(N4CCOC[C@@H]4C)n2)CN(Cc2ccc(F)cc2)C3)cc1 [Example 29]
Reply: 100 to 1000 nM

Ask: Identify IC50 associated with the molecule C[C@H]1COCCN1c1nc(-c2ccc(NC(N)=O)cc2)nc2c1CNC2 [Example 5]
Reply: < 100 nM
